assay: compounds lowering TTR transcription reporter in HuH7 – cell-based, luminescence, HuH7 hepatoma, counter-screen for TTR transcription activator project (AID 1117279); details: HuH7 TTR promoter-Gaussia luciferase reporter, at 16.7 µM, hits give high values;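 further: 0% = cells with DMSO only and 100% = cells with inhibitor control FD; inhibitors lower well luminescence so higher value means more inhibition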
The whole screen tested about 1,100 compounds, of which about 40 (4%) were called active. These entries were drawn from the full list.
What inhibition was measured for each of the following?
Answers are plain numbers, in %.

Please state, for each entry, its recorded inhibition.
1. O=S(=O)(NCc1ccccc1Br)c1ccccc1Br
2. COc1ccc(S(=O)(=O)NCC(=O)NCc2cc(=O)n(C)c(=O)n2C)cc1F
3. CC(C)NC(=O)c1ccc(Sc2ccccc2)c([N+](=O)[O-])c1
4. CCCCc1cc(=O)oc2cc(C)cc(OCc3nn[nH]n3)c12
5. COc1ccc(-c2oc3ncn(Cc4ccco4)c(=N)c3c2-c2ccc(OC)cc2)cc1
6. CCOC(=O)c1c(-c2ccccc2)oc2ccc(OCC(N)=O)cc12

Ans:
6.86
-4.59
-1.16
-25.9
1.5
-17.5

----------
assay: compounds lowering TTR transcription reporter in HuH7 – cell-based, luminescence, HuH7 hepatoma, counter-screen for TTR transcription activator project (AID 1117279); conditions: HuH7 TTR promoter-Gaussia luciferase reporter, at 16.7 µM, hits give high values;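 further: 0% = cells with DMSO only and 100% = cells with inhibitor control FD; inhibitors lower well luminescence so higher value means more inhibition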
The whole screen tested about 1,100 compounds, of which about 40 (4%) were called active. The list is a sample of the results.
Mark condition not met for inhibition values under -10%, and condition met for everything at or above.

Q: Has O=C(Nc1ccccc1C(=O)N1CCCCCC1)c1ccccc1Cl a recorded inhibition greater than or equal to -10%?
Ans: condition not met

Q: Let us now turn to CCOc1ccc(NC(=O)COc2ccc(S(=O)(=O)N3CCCC3)cc2)cc1
Ans: condition not met

----------
assay: compounds lowering TTR transcription reporter in HuH7 – cell-based, luminescence, HuH7 hepatoma, counter-screen for TTR transcription activator project (AID 1117279); settings: HuH7 TTR promoter-Gaussia luciferase reporter, at 16.7 µM, hits give high values;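 further: 0% = cells with DMSO only and 100% = cells with inhibitor control FD; inhibitors lower well luminescence so higher value means more inhibition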
Hit rate of the full screen: of about 1,100 compounds, about 40 (4%) were called active. Not all results are given here.
MEASUREMENT LABEL: inhibition (%)
Numbers only, in %.

Look over these answered cases.
Q: Any idea what its inhibition is? The molecule is Cn1cc(CN2CCCC(CO)C2)c(-c2ccc(Oc3ccccc3)cc2)n1 (stereo not drawn)
Ans: -9.5

Q: Let us now turn to CSCCC(NC(N)=O)C(=O)N(C)CC(=O)Nc1ccc(C)cc1 (stereo not drawn)
Ans: -0.9

// moving on: another record for inhibition
Q: Any idea what its inhibition is? The molecule is Cc1ccccc1/[N+]([O-])=C/c1ccncc1
Ans: -5.47
